B1: Twister Ribozyme (parent)
chain: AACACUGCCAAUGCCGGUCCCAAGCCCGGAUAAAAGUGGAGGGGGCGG

- Variants of: B1
- EXPERIMENT_SUMMARY: self-cleavage, relative activity (ratio to wild type); higher = more cleavage; co-transcriptional
ATTRIBUTE_MEASURED: self-cleavage
# output: bare number, no unit

// solved cases for self-cleavage follow
A4U U18C = 0.027
A2U A23C = 0.107

Pending variant:
input: Note self-cleavage for the variant shown: G43A C46U
output: 0.315
